# measurementNotes: Quantitative High-Throughput drug screen in 47 multiple myeloma cell lines against the NCATS MIPE library collection: OPM1_PLB cell viability assay (AID 1918989); further: nearly all actives have a fitted effect of over 40% in size
# assaySetup: CellTiter-Glo, 48 h; series mostly up to 45.8 µM
Inconclusive results are not listed. Calls of active or inactive are those of the source. The call rests on the fitted dose curve; in most records, active means well fitted cell-killing curve with a large enough effect; inconclusive means small, poorly fitted or top-dose-only effect, or effect the other way; inactive means no such curve, though single readings can be large or run the other way.
Tick one outcome: T = active, F = inactive

Ask: Call for entry CCN1CCCC1CNC(=O)c1cc(S(N)(=O)=O)ccc1OC (stereo unspecified) :
Result: F

Ask: Call for entry Cc1cc(NS(=O)(=O)c2ccc(N)cc2)no1 :
Result: F

Ask: Call for entry CNCC[C@H](Oc1cccc2ccccc12)c1cccs1 :
Result: T

Ask: Call for entry CCOC(=O)c1ccc(OC(=O)CCCCCN=C(N)N)cc1 :
Result: F

Ask: Call for entry O=C(N[C@H](CO)[C@H](O)c1ccc([N+](=O)[O-])cc1)C(Cl)Cl :
Result: F

Ask: Call for entry CC1=C(C(=O)O)N2C(=O)[C@@H](NC(=O)C(N)c3ccccc3)[C@H]2SC1 (stereo partly specified) :
Result: F

----------
# measurementNotes: qHTS of pediatric cancer cell lines to identify multiple opportunities for drug repurposing: Primary screen for A673 cells (AID 1347092); further: nearly all actives have a fitted effect of over 45% in size
# assaySetup: A673 Ewing sarcoma viability, CellTiter-Glo ATP luminescence, 48 h; series mostly up to 46 µM
Records with an inconclusive call do not appear. Active and inactive are the calls of the source. The call rests on the fitted dose curve; in most records, active means well fitted cell-killing curve with a large enough effect; inconclusive means small, poorly fitted or top-dose-only effect; inactive means no such curve, though single readings can be large or run the other way.
Tick one outcome: active, inactive

Ask: Call for entry COc1nc(N)nc2c1ncn2[C@@H]1O[C@H](CO)[C@@H](O)[C@@H]1O :
Result: inactive

Ask: Call for entry CCOC(=O)c1ccc(OC(=O)CCCCCN=C(N)N)cc1 :
Result: inactive

Ask: Call for entry CCN(CC)CCn1c(=O)c(Cc2ccc(OC)cc2)nc2ccccc21 :
Result: inactive

Ask: Call for entry Cc1onc(-c2ccccc2Cl)c1C(=O)N[C@@H]1C(=O)N2[C@@H]1SC(C)(C)[C@@H]2C(=O)O :
Result: inactive

Ask: Call for entry CCc1cc(C(N)=S)ccn1 :
Result: inactive

Ask: Call for entry CCN[C@H]1C[C@H](C)S(=O)(=O)c2sc(S(N)(=O)=O)cc21 :
Result: inactive

Ask: Call for entry O=S(=O)(c1cccc2cnccc12)N1CCCNCC1 :
Result: active

Ask: Call for entry CC(=O)Oc1ccccc1C(=O)Nc1ncc([N+](=O)[O-])s1 :
Result: active

Ask: Call for entry CN1CCCC(n2nc(Cc3ccc(Cl)cc3)c3ccccc3c2=O)CC1 (stereo unspecified) :
Result: active

Ask: Call for entry CNCC[C@H](Oc1cccc2ccccc12)c1cccs1 :
Result: active

Ask: Call for entry CC(C)(C#N)c1cc(Cn2cncn2)cc(C(C)(C)C#N)c1 :
Result: inactive

----------
# measurementNotes: Quantitative High-Throughput drug screen in 47 multiple myeloma cell lines against the NCATS MIPE library collection: OPM1_PLB cell viability assay (AID 1918989); further: nearly all actives have a fitted effect of over 40% in size
# assaySetup: CellTiter-Glo, 48 h; series mostly up to 45.8 µM
# Excerpt: PI: Beverly A. Mock Ph.D. Laboratory of Cancer Biology and Genetics, Center for Cancer Research, National Cancer Institute, National Institute of Health, Bethesda, Maryland […] 5; Detector; 425V; Luminescence; Viewlux PerkinElmer. […] 1. […] Briefly, the corresponding myeloma cell lines were screened in 1,536-well plates with 500 cells, 5-uL per well for inhibition of cell viability (assessed by measuring ATP levels with CellTiterGlo). […]
Records with an inconclusive call do not appear. The source made the active and inactive calls. Calls come from the whole dose curve; as a rule, active = well fitted cell-killing curve with a large enough effect; inconclusive = small, poorly fitted or top-dose-only effect, or effect the other way; inactive = no such curve, though single readings can be large or run the other way.
Tick one outcome: label 1 for active, label 0 for inactive

Ask: Call for entry O=C(O)c1ccc(-n2nc(-c3ccccc3O)nc2-c2ccccc2O)cc1 :
Result: label 1

Ask: Call for entry CO[C@@]12[C@H](COC(N)=O)C3=C(C(=O)C(C)=C(N)C3=O)N1C[C@@H]1N[C@@H]12 :
Result: label 1

Ask: Call for entry CCn1cc(C(=O)O)c(=O)c2cc(F)c(N3CCNCC3)nc21 :
Result: label 0

Ask: Call for entry C#CCN[C@@H]1CCc2ccccc21 :
Result: label 0

Ask: Call for entry CC(=O)CC(c1ccccc1)c1c(O)c2ccccc2oc1=O (centres undefined) :
Result: label 0

Ask: Call for entry CCC(=O)O[C@]1(C(=O)CCl)[C@@H](C)C[C@H]2[C@@H]3CCC4=CC(=O)C=C[C@]4(C)[C@@]3(F)[C@@H](O)C[C@@]21C :
Result: label 0

Ask: Call for entry Cc1ccc(S(=O)(=O)N[C@@H](Cc2ccccc2)C(=O)CCl)cc1 :
Result: label 1

Ask: Call for entry C1CCC(C(CC2CCCCN2)C2CCCCC2)CC1 (centres undefined) :
Result: label 1

Ask: Call for entry O=C(O)c1cc(=O)[nH]c(=O)[nH]1 :
Result: label 0

Ask: Call for entry Cc1noc(NS(=O)(=O)c2ccc(N)cc2)c1C :
Result: label 0

Ask: Call for entry CC(=O)[C@H]1CC[C@H]2[C@@H]3CCC4=CC(=O)CC[C@]4(C)[C@H]3CC[C@]12C :
Result: label 1

Ask: Call for entry OCc1ccc(-c2nn(Cc3ccccc3)c3ccccc23)o1 :
Result: label 1

Ask: Call for entry CCc1c2c(nc3ccc(OC(=O)N4CCC(N5CCCCC5)CC4)cc13)-c1cc3c(c(=O)n1C2)COC(=O)[C@]3(O)CC :
Result: label 1

Ask: Call for entry NNC(=O)c1ccncc1 :
Result: label 0

Ask: Call for entry CCC(=O)O[C@]1(C(=O)SCF)[C@H](C)C[C@H]2[C@@H]3C[C@H](F)C4=CC(=O)C=C[C@]4(C)[C@@]3(F)[C@@H](O)C[C@@]21C :
Result: label 0

Ask: Call for entry CC(C)NCC(O)c1ccc(NS(C)(=O)=O)cc1 (centres undefined) :
Result: label 0

Ask: Call for entry CC(C(=O)O)c1ccc2c(c1)CC(=O)c1ccccc1S2 (centres undefined) :
Result: label 0

Ask: Call for entry COc1ccccc1OCC(O)COC(N)=O (centres undefined) :
Result: label 0

Ask: Call for entry S=P(N1CC1)(N1CC1)N1CC1 :
Result: label 0

Ask: Call for entry COC(=O)Nc1nc2ccc(C(=O)c3ccccc3)cc2[nH]1 :
Result: label 1

Ask: Call for entry CCCOc1ccc(C(=O)OCCN(CC)CC)cc1N :
Result: label 0

Ask: Call for entry CCOC(=O)[C@H](CCc1ccccc1)N[C@H]1CS[C@H](c2cccs2)CN(CC(=O)O)C1=O :
Result: label 1

Ask: Call for entry O=C(O)c1cccnc1 :
Result: label 0

Ask: Call for entry COc1ccc2cc3[n+](cc2c1OC)CCc1cc2c(cc1-3)OCO2 :
Result: label 1

Ask: Call for entry O=C(O)c1cn(C2CC2)c2cc(N3CCNCC3)c(F)cc2c1=O :
Result: label 0

Ask: Call for entry COc1ccc(C(=O)CC(=O)c2ccc(C(C)(C)C)cc2)cc1 :
Result: label 1

Ask: Call for entry CCCc1cc(C(N)=S)ccn1 :
Result: label 0

Ask: Call for entry CNC1CCCN(c2c(F)cc3c(=O)c(C(=O)O)cn(C4CC4)c3c2OC)C1 (centres undefined) :
Result: label 1

Ask: Call for entry C[C@@H]1CN(c2c(F)c(N)c3c(=O)c(C(=O)O)cn(C4CC4)c3c2F)C[C@H](C)N1 :
Result: label 0

Ask: Call for entry CCOCC(O)COc1ccc(NC(=O)CC[S+](C)C)cc1 (centres undefined) :
Result: label 0

Ask: Call for entry CCN(C)C(=O)Oc1cccc([C@H](C)N(C)C)c1 :
Result: label 0

Ask: Call for entry Cc1nnc(C(=O)NC(C)(C)c2nc(C(=O)NCc3ccc(F)cc3)c(O)c(=O)n2C)o1 :
Result: label 0

Ask: Call for entry CNC(=O)c1cc(Oc2ccc(NC(=O)Nc3ccc(Cl)c(C(F)(F)F)c3)cc2)ccn1 :
Result: label 1

Ask: Call for entry CNNCc1ccc(C(=O)NC(C)C)cc1 :
Result: label 0

Ask: Call for entry COc1cc(NCc2ccc3nc(N)nc(N)c3c2C)cc(OC)c1OC :
Result: label 1

Ask: Call for entry CO[C@@H]1[C@@H](OC(N)=O)[C@@H](O)[C@H](Oc2ccc3c(O)c(NC(=O)c4ccc(O)c(CC=C(C)C)c4)c(=O)oc3c2C)OC1(C)C :
Result: label 1

Ask: Call for entry COc1ccc2c(c1)c(CC(=O)OCC(=O)O)c(C)n2C(=O)c1ccc(Cl)cc1 :
Result: label 0

Ask: Call for entry Cc1cccc(Nc2ccncc2S(=O)(=O)NC(=O)NC(C)C)c1 :
Result: label 0

Ask: Call for entry CC1=NN(c2ccccc2)C(=O)C1 :
Result: label 0

Ask: Call for entry NC1(c2ccc(-c3nc4ccn5c(=O)[nH]nc5c4cc3-c3ccccc3)cc2)CCC1 :
Result: label 1

Ask: Call for entry OC(Cn1cncn1)(Cn1cncn1)c1ccc(F)cc1F :
Result: label 0

Ask: Call for entry COC(c1ccccc1)(c1ccccc1)[C@H](Oc1nc(C)cc(C)n1)C(=O)O :
Result: label 0

Ask: Call for entry Nc1nc(F)nc2c1ncn2[C@@H]1O[C@H](CO)[C@@H](O)[C@@H]1O :
Result: label 1

Ask: Call for entry NC(N)=NC(N)=NCCc1ccccc1 :
Result: label 1
